Values compiled from the supplement of paper PMC3334620.

- assay_system: Yap3 (UniProt P38749)
- Sequence: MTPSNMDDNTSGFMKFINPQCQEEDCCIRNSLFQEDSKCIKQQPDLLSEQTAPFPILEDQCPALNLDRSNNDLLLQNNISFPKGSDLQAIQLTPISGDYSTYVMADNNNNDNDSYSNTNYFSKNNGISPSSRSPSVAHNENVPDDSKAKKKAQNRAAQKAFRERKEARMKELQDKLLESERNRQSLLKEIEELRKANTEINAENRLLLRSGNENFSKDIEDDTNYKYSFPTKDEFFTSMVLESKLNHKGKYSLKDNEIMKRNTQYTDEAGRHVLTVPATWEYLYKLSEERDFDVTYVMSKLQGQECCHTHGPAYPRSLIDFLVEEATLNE
- experiment: PBM E-score (8-mer binding enrichment) (E-score (-0.5 to 0.5)); higher = stronger / more preferred TF binding
- conditions: protein concentration: 100 nM; construct: GST-full length
The full ranking holds about 33,000 sequences; the median of “E-score (-0.5 to 0.5)” is about -0.0034, and the highest 2% start at about 0.25. The list comes from a sample in which the highest values are over-represented; it also holds close analogues and randomly drawn sequences.
property_label: PBM E-score
// print number alone

>  <residue_codes>
ACATCTTC

>  <assay_system>
Yap3 (UniProt P38749)

>  <PBM E-score>
0.0249

$$$$
>  <residue_codes>
CATTAGTA

>  <assay_system>
Yap3 (UniProt P38749)

>  <PBM E-score>
0.289

$$$$
>  <residue_codes>
ATAGTTAA

>  <assay_system>
Yap3 (UniProt P38749)

>  <PBM E-score>
0.114

$$$$
>  <residue_codes>
CCAGTTCG

>  <assay_system>
Yap3 (UniProt P38749)

>  <PBM E-score>
-0.114

$$$$
>  <residue_codes>
AATTAGTC

>  <assay_system>
Yap3 (UniProt P38749)

>  <PBM E-score>
0.303

$$$$

Qu. System Yap3 (UniProt P38749). Read-out PBM E-score. Item "CATTAGTC" . Report value.
Ans. 0.0988

Qu. System Yap3 (UniProt P38749). Read-out PBM E-score. Item "CTGACTAC" . Report value.
Ans. -0.0607

Qu. System Yap3 (UniProt P38749). Read-out PBM E-score. Item "GTGACTGA" . Report value.
Ans. 0.167
